- TEST SUMMARY: Inhibition of cAMP-dependent protein kinase (unknown origin)
- Design: species or system Homo sapiens
QUANTITY NAME: IC50 (µM)
Answers are plain numbers, in µM.

Briefly, IC50 measured for CC1CN(S(=O)(=O)c2cccc3cnccc23)CCN1 (stereo unspecified) : 3

---

- STUDY TARGET: UniProtKB P15127
- Sequence (P15127 27-759 limits assumed): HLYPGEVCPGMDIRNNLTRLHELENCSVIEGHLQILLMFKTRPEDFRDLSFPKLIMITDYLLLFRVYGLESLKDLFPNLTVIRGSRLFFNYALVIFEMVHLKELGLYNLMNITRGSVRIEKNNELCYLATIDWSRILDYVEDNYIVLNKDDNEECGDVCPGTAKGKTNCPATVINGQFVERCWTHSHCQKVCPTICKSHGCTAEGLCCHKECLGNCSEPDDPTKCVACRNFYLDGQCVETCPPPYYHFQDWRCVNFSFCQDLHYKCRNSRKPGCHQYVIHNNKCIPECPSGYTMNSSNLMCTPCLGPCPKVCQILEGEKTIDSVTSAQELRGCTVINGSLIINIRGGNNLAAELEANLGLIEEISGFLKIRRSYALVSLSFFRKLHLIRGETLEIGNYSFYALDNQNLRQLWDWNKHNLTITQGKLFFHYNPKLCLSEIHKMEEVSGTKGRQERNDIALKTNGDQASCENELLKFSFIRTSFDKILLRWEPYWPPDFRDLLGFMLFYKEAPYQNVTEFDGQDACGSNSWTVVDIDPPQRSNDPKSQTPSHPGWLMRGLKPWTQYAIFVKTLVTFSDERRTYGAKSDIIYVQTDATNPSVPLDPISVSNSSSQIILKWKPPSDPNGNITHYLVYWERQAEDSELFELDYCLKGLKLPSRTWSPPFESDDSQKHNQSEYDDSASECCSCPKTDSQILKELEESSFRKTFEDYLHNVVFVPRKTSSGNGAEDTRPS
- Sequence (P15127 764-1383 limits assumed): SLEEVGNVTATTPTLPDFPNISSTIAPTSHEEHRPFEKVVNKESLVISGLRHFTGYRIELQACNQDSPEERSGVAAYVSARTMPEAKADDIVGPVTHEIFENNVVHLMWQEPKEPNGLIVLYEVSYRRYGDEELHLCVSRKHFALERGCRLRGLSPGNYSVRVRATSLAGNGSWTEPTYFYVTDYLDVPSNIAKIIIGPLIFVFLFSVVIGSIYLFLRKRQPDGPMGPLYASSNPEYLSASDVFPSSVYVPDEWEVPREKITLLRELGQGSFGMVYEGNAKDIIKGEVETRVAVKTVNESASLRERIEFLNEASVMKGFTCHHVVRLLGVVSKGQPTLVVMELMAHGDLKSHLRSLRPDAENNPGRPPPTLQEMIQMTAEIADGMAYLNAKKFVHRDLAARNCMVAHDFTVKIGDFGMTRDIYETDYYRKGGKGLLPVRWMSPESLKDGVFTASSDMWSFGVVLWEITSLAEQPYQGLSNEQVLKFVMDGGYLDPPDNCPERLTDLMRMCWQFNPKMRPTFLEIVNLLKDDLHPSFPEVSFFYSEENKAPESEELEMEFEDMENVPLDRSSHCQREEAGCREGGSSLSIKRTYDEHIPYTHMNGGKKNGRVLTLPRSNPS
pIC50: −log10 of the molar value.
QUANTITY NAME: pIC50

pIC50 in this record for CN(C)CCCn1cc(C2=C(c3c[nH]c4ccccc34)C(=O)NC2=O)c2ccccc21 [GF-109203] : < 4.00

---

- STUDY TARGET: Epidermal growth factor receptor (Homo sapiens)
- Sequence (P00533 whole entry): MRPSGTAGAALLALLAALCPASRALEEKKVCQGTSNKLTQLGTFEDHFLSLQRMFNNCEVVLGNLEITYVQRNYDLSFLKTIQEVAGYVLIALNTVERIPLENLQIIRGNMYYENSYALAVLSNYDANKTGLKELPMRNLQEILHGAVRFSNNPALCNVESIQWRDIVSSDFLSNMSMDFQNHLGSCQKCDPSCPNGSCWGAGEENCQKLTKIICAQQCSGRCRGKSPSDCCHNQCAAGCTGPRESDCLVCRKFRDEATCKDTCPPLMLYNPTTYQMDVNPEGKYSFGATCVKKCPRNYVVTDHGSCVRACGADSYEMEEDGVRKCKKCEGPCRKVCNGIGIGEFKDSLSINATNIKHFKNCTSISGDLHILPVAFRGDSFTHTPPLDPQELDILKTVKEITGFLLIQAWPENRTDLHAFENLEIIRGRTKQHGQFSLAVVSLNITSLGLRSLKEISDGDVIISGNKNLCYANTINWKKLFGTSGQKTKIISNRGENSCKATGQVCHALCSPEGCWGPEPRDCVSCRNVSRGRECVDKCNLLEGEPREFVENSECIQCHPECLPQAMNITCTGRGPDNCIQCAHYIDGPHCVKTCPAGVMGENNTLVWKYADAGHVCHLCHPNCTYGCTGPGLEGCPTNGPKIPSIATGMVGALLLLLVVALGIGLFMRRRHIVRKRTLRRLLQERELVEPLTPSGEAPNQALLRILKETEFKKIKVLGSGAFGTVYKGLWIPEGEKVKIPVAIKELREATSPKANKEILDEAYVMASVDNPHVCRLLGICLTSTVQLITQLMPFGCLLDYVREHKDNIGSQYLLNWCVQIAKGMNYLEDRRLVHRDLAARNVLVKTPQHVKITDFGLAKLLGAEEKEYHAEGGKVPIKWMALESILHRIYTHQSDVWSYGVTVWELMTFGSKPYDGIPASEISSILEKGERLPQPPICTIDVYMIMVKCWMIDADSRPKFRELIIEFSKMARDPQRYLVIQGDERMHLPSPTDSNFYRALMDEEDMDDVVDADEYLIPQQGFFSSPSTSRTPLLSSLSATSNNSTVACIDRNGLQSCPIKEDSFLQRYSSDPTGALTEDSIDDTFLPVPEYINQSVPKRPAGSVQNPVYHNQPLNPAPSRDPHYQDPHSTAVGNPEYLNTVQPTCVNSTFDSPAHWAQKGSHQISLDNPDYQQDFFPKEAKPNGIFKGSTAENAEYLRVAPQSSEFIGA
- TEST SUMMARY: Inhibition of EGFR in human A-431 cells in presence of ATP
pIC50: −log10 of the molar value.
QUANTITY NAME: pIC50

Record CN(C)CCCn1cc(C2=C(c3c[nH]c4ccccc34)C(=O)NC2=O)c2ccccc21 [GF-109203] has Epidermal growth factor receptor (Homo sapiens) pIC50 equal to < 4.00

---

I'd be grateful if you could share measured pIC50 for these entries.
- TEST SUMMARY: Inhibition of Phosphorylase kinase in rabbit muscle tissue in presence of [p32-gamma]-ATP measured after 10 mins by scintillation counter analysis
- Format: tissue-based, Oryctolagus cuniculus
Give bare numbers, as −log10 of the molar value.

The recorded pIC50 for O=C1NC(=O)C(c2cn(CCCN3CCOCC3)c3ccccc23)=C1c1c[nH]c2ccccc12 is 5.70

Look at each molecule and report its pIC50.
1. O=C1NC(=O)C(c2cn(CCCN3CCNCC3)c3ccccc23)=C1c1c[nH]c2ccccc12
2. O=C1NC(=O)C(c2cn(CCC3CCCCN3)c3ccccc23)=C1c1c[nH]c2ccccc12 (stereo not drawn)
3. CN1CCCC1CCCn1cc(C2=C(c3c[nH]c4ccccc34)C(=O)NC2=O)c2ccccc21 (stereo not drawn)
4. CN(C)CCCn1cc(C2=C(c3c[nH]c4ccccc34)C(=O)NC2)c2ccccc21
5. CN(C)CCCn1cc(C2=C(c3c[nH]c4ccccc34)C(=O)NC2=O)c2ccccc21
6. CN[C@@H]1C[C@H]2O[C@@](C)([C@@H]1OC)n1c3ccccc3c3c4c(c5c6ccccc6n2c5c31)C(=O)NC4

Ans:
1. 5.24
2. 6.40
3. 6.12
4. 5.56
5. 6.15
6. 7.32

Entry O=C1NC(=O)C(c2c[nH]c3ccccc23)=C1c1c[nH]c2ccccc12 , pIC50 reported as 5.49

---

- STUDY TARGET: Protein kinase C (PKC)
- TEST SUMMARY: Inhibition of rat brain PKC
- Assay type: tissue-based
QUANTITY NAME: IC50
Remember to put the unit after the number in your answer.

Answered examples (3):
Form: compound = COc1c(C[C@@H](C)OC(=O)Oc2ccc(O)cc2)c2c3c(C[C@@H](C)OC(=O)c4ccccc4)c(OC)c(=O)c4c(O)cc(OC)c(c5c(OC)cc(O)c(c1=O)c52)c43 ; IC50 = 0.05 µM

// IC50 value for NC(=O)c1cn([C@@H]2O[C@H](CO)[C@@H](O)[C@H]2O)c2ncnc(N)c12 : 11 µM

Lab note: measured IC50 of CC1CN(S(=O)(=O)c2cccc3cnccc23)CCN1 (centres undefined) was 6 µM

Here is another compound to look at.
IC50 reading for CCCCCCCCCCCCC/C=C/[C@@H](O)[C@@H](N)CO : 10 µM
